Measured pIC50 (Brain AChE (acetylcholinesterase, rat striatum) (Rattus norvegicus))
Remember, pIC50 is on a log scale: it is -log10 of the molar concentration.

Chem Smiles	pIC50
CCNC(=O)Oc1cnccc1N=CN(C)C	5.03

Pending molecule:
Q: Supply pIC50 measured with Brain AChE (acetylcholinesterase, rat striatum) (Rattus norvegicus) for CNC(=O)Oc1cnccc1N=CN(C)C .
Sequence (P37136 32-614): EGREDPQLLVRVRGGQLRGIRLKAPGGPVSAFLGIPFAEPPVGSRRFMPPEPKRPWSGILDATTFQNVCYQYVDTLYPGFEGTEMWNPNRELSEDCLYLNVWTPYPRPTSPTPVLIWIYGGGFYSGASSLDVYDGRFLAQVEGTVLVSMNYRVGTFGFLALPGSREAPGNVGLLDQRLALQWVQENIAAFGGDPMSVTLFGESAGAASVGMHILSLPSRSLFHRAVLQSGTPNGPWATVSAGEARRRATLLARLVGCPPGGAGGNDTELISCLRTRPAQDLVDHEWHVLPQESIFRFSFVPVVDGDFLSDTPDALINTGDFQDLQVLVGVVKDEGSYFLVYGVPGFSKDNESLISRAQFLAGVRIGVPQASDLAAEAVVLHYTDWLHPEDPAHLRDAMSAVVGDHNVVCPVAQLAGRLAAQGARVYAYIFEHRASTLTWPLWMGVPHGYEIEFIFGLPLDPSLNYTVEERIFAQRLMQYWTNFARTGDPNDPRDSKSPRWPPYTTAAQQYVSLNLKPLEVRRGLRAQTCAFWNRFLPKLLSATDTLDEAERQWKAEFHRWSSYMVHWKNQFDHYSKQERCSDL
Ans: 4.90
